system: SF-539 CNS; test: NCI tumour cell line growth inhibition, 48 h

- compound: "NC(N)=NS(=O)(=O)c1ccc(NC(=O)c2cccc3c(=O)c4ccccc4[nH]c23)cc1"
  TGI: "> 100 µM"
- compound: "COc1ccccc1N1C(=O)CSC1c1c[nH]c2ccccc12 (stereo not given)"
  TGI: "> 100 µM"
- compound: "Cc1cc(C(=O)NCCN(C)C)c2nc3ccccc3cc2c1"
  TGI: "12.7 µM"
- compound: "CC1CCC2C(C)(C)CC3(C)CCC1C23O (stereo not given)"
  TGI: "31.6 µM"
- compound: "O=C1/C(=C/c2ccccc2)CN(C(=O)CCN2CCC(=NO)CC2)C/C1=C\\c1ccccc1"
  TGI: "3.85 µM"

----------
test system: K-562 leukemia; experiment: NCI tumour cell line growth inhibition, 48 h; in the data active = GI50 below about 0.43 µM; inactive = the rest
Outcomes: active, inactive

- smiles representation: "O=C(C[n+]1cccc2cc(Cl)ccc21)c1ccc2c(c1)CCCC2"
  assigned class: "inactive"
- smiles representation: "C[CH2][Sn]([CH2]C)([O]C(=O)c1ccccc1F)[O]C(=O)c1ccccc1F"
  assigned class: "inactive"
- smiles representation: "COc1ccc(/C(C)=C(\\c2ccc(Cl)cc2)c2ccc(OCCN3CCCCC3)cc2)cc1"
  assigned class: "inactive"
- smiles representation: "COc1cc(-c2nccn2-c2ccc3ccccc3c2)cc(OC)c1OC"
  assigned class: "active"
- smiles representation: "CC/C=C\\C/C=C\\C/C=C\\CCCCCCCC(=O)OC"
  assigned class: "inactive"
- smiles representation: "NC(N)=NN=C(c1ccccc1)c1ccccc1"
  assigned class: "inactive"
- smiles representation: "COc1cc2c(/C=C3/C(=O)Nc4c3ccc3ccccc43)c(Cl)n(C)c2cc1C"
  assigned class: "active"
- smiles representation: "COc1ccc2c(c1)/C(=N/OC(C)=O)c1c-2c(Nc2cccc(/C(C)=N/OC(C)=O)c2)nc2ccccc12"
  assigned class: "inactive"
- smiles representation: "CC[N+](CC)=c1cc2oc3cc(N(C)C)ccc3nc-2cc1C"
  assigned class: "inactive"
- smiles representation: "O=C1/C=C/[C@@H](O)[C@@H]2C[C@@H](O)C[C@H]2/C=C/CCC[C@H](CCOCc2ccccc2)O1"
  assigned class: "active"
- smiles representation: "COc1cc(Nc2ccnc(NCCNc3ccnc4cc(Cl)ccc34)n2)cc(OC)c1"
  assigned class: "inactive"
- smiles representation: "CNC(=O)c1ccccc1Nc1cc(Nc2ccc(N3CCOCC3)cc2OC)ncc1C(F)(F)F"
  assigned class: "inactive"

----------
test system: NCI-H226 lung; test: NCI tumour cell line growth inhibition, 48 h; in the data active = GI50 below about 0.43 µM; inactive = the rest
Classes used: YES (active), NO (inactive)

- molecule: "COc1cc(/C=C/C(=O)c2ccc(Nc3nc(NCCO)nc(N4CCOCC4)n3)cc2)cc(OC)c1OC"
  assigned class: "NO"
- molecule: "CCC[CH2][Sn]1([CH2]CCC)[O]CC(CN2CCCCC2)[O]1 (stereo unspecified)"
  assigned class: "NO"
- molecule: "C1C[OH+]CC[OH+]CC[OH+]CC[OH+]CC[OH+]CC[OH+]1.[Cl-].[V]"
  assigned class: "NO"
- molecule: "O=C(c1ccc(Cl)c(Cl)c1)N1CCN(C(=O)c2ccc(Cl)c(Cl)c2)C1=S"
  assigned class: "NO"
- molecule: "O=C(Nc1ncc(Cc2ccccc2)s1)c1sc2ccccc2c1Cl"
  assigned class: "NO"
- molecule: "c1cc[n+](C2c3ccccc3C([n+]3ccccc3)c3ccccc32)cc1 (stereo unspecified)"
  assigned class: "NO"
- molecule: "Clc1ccc(C(Cn2ccnc2)OCc2ccsc2Cl)c(Cl)c1 (stereo unspecified)"
  assigned class: "NO"
- molecule: "O=C(Cc1n[nH]c(=O)c2ccccc12)OCc1c(Cl)cccc1Cl"
  assigned class: "NO"
- molecule: "C=CC(=O)N1CCN(CCCn2c(=O)c(-c3c(Cl)c(OC)cc(OC)c3Cl)cc3cnc(NC)nc32)CC1"
  assigned class: "YES"
- molecule: "O=C(c1ccco1)c1nc2ccc(Cl)cc2[n+]([O-])c1C(F)(F)F"
  assigned class: "NO"
- molecule: "COc1cccc2[nH]c3c4c(c5c(c3c12)C(=O)N(CN1CCN(C)CC1)C5=O)CCC4"
  assigned class: "NO"
